# System: SF-295 CNS
# procedure-details: NCI-60 one-dose screen, 48 h (100 = growth as untreated, 0 = no growth, -100 = all killed)
# stated-conditions: 10 µM
The panel holds about 83,000 compounds, 20% with a hit somewhere; the sample as a whole holds those more often.
result-type: growth (%)
Report the value in % with no unit label.

Recorded growth, per entry:
1. O=C(O)Cc1ccc(O)c(O)c1    102
2. COc1cc(-c2csc(NC(=O)Nc3ccc(Cl)c(C(F)(F)F)c3)n2)cc(OC)c1OC    -34.7
3. CCCN1CN2C(=O)N3CN(CCC)CN4C(=S)N(C1)C2C34 (centres undefined)    94.2
4. C/C=C/CSC(C)(C)C(=O)NC    106
5. COc1ccc(C(=O)N2C=Cc3ccccc3C2C#N)cc1 (centres undefined)    99.2
6. COc1ccc(-c2nn(-c3cccc(Cl)c3)cc2-c2cc(-c3ccccc3)nc(N)n2)cc1    55
7. O=S(=O)(O)c1ccc(Cl)cc1    109
8. COc1cc(-c2nn(-c3cccc(NC(=O)NCCNC(=O)c4ccccc4)c3)cc2-c2ccncc2)ccc1Cl    -56.9

For the next question, use this compound.
QUERY: Specify growth for CC1C(=NC(=O)c2cnccn2)C(C)C(c2ccc(Cl)cc2)NC1c1ccncc1 (centres undefined) and stop.
RESULT: 117

* * *

# Test system: UACC-257 melanoma
# procedure-details: NCI-60 one-dose screen, 48 h
# stated-conditions: 10 µM
This is part of a sample that, as a whole, favours compounds with a hit. Of some 83,000 tested, about 20% had one in any assay. Active and inactive are the calls of the source. How the source made its calls: active means growth percent below 10; inactive means the rest.
Pick one and only one: 1 (active), 0 (inactive)

1) OCC1OC(n2ccc3c(NO)ncnc32)C(O)C1O (stereo not drawn)    1
2) CSc1nc2c(c(=O)n1C)CN(Cc1ccccc1)C(=O)CN2    0
3) O=C(/C=C/C=C/c1c(C2CC2)nc2ccccc2c1-c1ccc(F)cc1)c1cccs1    1
4) COc1ccc(C(=O)COc2cccc(/C=C3\Cc4ccccc4C3=O)c2)cc1    0
5) COc1cc(/C=C2\CCCC3C2=Nc2ccccc2NC3c2cc(OC)c(OC)c(OC)c2)cc(OC)c1OC (stereo not drawn)    0
6) COc1ccc(-c2nn(-c3cccc(Cl)c3)cc2-c2c(C#N)c(=O)n3[nH]c(-c4ccccc4)nc3c2C#N)cc1    0
7) O=C(CCn1cnc2c(cc(-c3ccccc3)n2-c2ccccc2)c1=O)Nc1ccc(F)cc1    0

Next up:
QUERY: Would you mind telling me which call this test gave CCC(c1ccc(OC)cc1)C(CC)c1ccc(O)c(CN2CCN(C)CC2)c1 (stereo not drawn) ?
RESULT: 1

* * *

# Tested on: NCI-H23 lung
# procedure-details: NCI-60 one-dose screen, 48 h (100 = growth as untreated, 0 = no growth, -100 = all killed)
# stated-conditions: 10 µM
This is part of a sample that, as a whole, favours compounds with a hit. Of some 83,000 tested, about 20% had one in any assay.
result-type: growth (%)
Please reply with the bare figure in % and do not write the unit itself.

# annotated cases, reported growth shown
1. COc1ccc(C(=O)N/N=C/c2cc(C(F)(F)F)ccc2Cl)cc1    81.3
2. COc1cc(OC)c2c(=O)c(O)c(-c3ccccc3)oc2c1    79.8

With those in mind, consider the next compound.
QUERY: Please give the documented growth of COc1ccc(-c2nnc(SCC(=O)Nc3ccc(C(=O)/C=C/c4ccccc4)cc3)n2-c2ccccc2)cc1OC
RESULT: 80.8

* * *

Reported growth values for the following molecules.
# System: MDA-MB-231 breast
# procedure-details: NCI-60 one-dose screen, 48 h (100 = growth as untreated, 0 = no growth, -100 = all killed)
# stated-conditions: 10 µM
This is part of a sample that, as a whole, favours compounds with a hit. Of some 83,000 tested, about 20% had one in any assay. The source made the active and inactive calls. Rule for the calls: active = growth percent below 10; inactive = the rest.

Some solved cases for reference:
1) CNC(=O)c1cn2c3c(c(N4CCN(C)CC4)c(F)cc3c1=O)OC[C@@H]2C    102% (inactive)
2) CCn1c(SCCc2ccccc2)nnc1-c1nn(-c2ccc(Cl)cc2Cl)c(-c2ccc(Cl)cc2)c1C    81.1% (inactive)
3) O=C1CC(SC(=S)C2CCCC2=O)C(=O)N1 (stereo not given)    105% (inactive)
4) Cc1ccc(C(C)C)c(O)c1NC(=O)OC(C)C    106% (inactive)
5) O=C(O)c1cc([N+](=O)[O-])ccc1Oc1ccccc1    97.3% (inactive)
6) Cc1cc(SC#N)cc(C(C)(C)C)c1O    113% (inactive)
7) COc1ccccc1N1CCCSC1=Nc1ccccc1    101% (inactive)
8) CCCCN(CCCC)C(=O)[C@H](CC)[C@@H]1CC[C@@H](C)[C@@H]([C@H](C)[C@@H](O)[C@@H](C)C(=O)[C@H](CC)C2O[C@]3(C=CC(=O)[C@]4(CC[C@@](C)([C@H]5CC[C@](O)(CC)[C@H](C)O5)O4)O3)[C@H](C)C[C@@H]2C)O1 (stereo not given in full)    46.8% (inactive)
9) CN(C)CCN(Cc1ccccc1)c1ccc2ccccc2n1    87.2% (inactive)

QUERY: Given the molecule CSc1nc2c(c(=O)n1C)CN(Cc1ccccc1)C(=O)CN2 , write its reported growth.
RESULT: 96.8% (inactive)

* * *

Each entry below carries its reported growth.
# Test system: BT-549 breast
# procedure-details: NCI-60 one-dose screen, 48 h (100 = growth as untreated, 0 = no growth, -100 = all killed)
# stated-conditions: 10 µM
About 83,000 compounds went through this panel and 20% of them were active in at least one assay; those are over-represented in the sample as a whole. Active and inactive are the calls of the source. How the source made its calls: active means growth percent below 10; inactive means the rest.

Here's what some known entries look like.
1. COc1ccc(/C=C2\CCCC3C2=Nc2ccccc2NC3c2ccc(OC)cc2)cc1 (stereo unspecified)    79.6% (inactive)
2. CN(C)CCCN1c2ccccc2CCc2ccc(Cl)cc21    77.8% (inactive)
3. CC1(C)N=C(N)N=C(N)N1c1cccc(C#N)c1    81.6% (inactive)
4. COc1ccc2c(c1)C(=O)/C(=C/c1ncc([N+](=O)[O-])n1C)O2    -18.7% (active)
5. CC(=O)[C@H]1CC[C@]2(C)[C@@H]1CC[C@@H]1[C@@]3(C)CC(CCC#N)(CCC#N)C(=O)C(C)(C)[C@@H]3CC[C@]12C    103% (inactive)
6. CCCCC/C=C/C/C=C/CCCCCCCC1=NC(C)(C)CN1C(C)C    77.8% (inactive)
7. Cc1[nH]c2ccccc2c1/C=N/Nc1ncnc2sc3c(c12)CCN(CC(=O)OC(C)(C)C)C3    81.4% (inactive)
8. O=C(N/N=C/c1ccc([N+](=O)[O-])cc1)c1ccccc1Nc1cccc(C(F)(F)F)c1    77.8% (inactive)
9. O=C(CCc1nnc2sc(-c3cc(O)c(O)c(O)c3)nn12)c1nc2ccccc2[nH]1    107% (inactive)
10. COc1ccc(-c2cc(-c3ccccc3)nc(SCCCCCCC(=O)NO)n2)cc1    85.4% (inactive)

Next:
QUERY: Specify measured growth for C=CCn1c(SCC(=O)Nc2ccc(C(=O)/C=C/c3ccc(Cl)cc3)cc2)nnc1-c1cc(-c2ccccc2)nc2ccccc12 .
RESULT: 64.2% (inactive)

* * *

# System: NCI-H460 lung
# procedure-details: NCI-60 one-dose screen, 48 h (100 = growth as untreated, 0 = no growth, -100 = all killed)
# stated-conditions: 10 µM
Compounds without any hit were thinned out: in the full panel of roughly 83,000, 20% have a hit. Active and inactive are the calls of the source. Rule for the calls: active = growth percent below 10; inactive = the rest.
result-type: growth

Solved entries (count: 5):
1) Oc1ccc(-c2[nH]c3ccccc3c2-c2nc3ccccc3o2)cc1    86.6% (inactive)
2) COc1ccc(/C(C#N)=C/c2cccc(OC)c2OC)cc1    108% (inactive)
3) Cc1ccc(NC(=O)N2CCCCC2)cc1[N+](=O)[O-]    108% (inactive)
4) COc1nc2c(c(=O)n1C)CN(c1ccccc1)C(=O)C(C)N2 (stereo not given)    104% (inactive)
5) COc1cc2ncnc(NC3CCC(O)CC3)c2cc1OC (stereo not given)    102% (inactive)

QUERY: Give the measured growth for CCOC(=O)c1cc(C(=O)c2ccc(OC)c(OC)c2)n2c1ccc1ccc3cccnc3c12
RESULT: 11% (inactive)

QUERY: Give the value of growth reported for the following: COc1cc2c(Nc3ccc(S(N)(=O)=O)cc3)ncnc2c(OC)c1OC
RESULT: 105% (inactive)

QUERY: Answer with the recorded growth of COc1cc(Cc2cc(-c3ccccc3)n[nH]c2=O)cc(OC)c1OC only.
RESULT: 44.5% (inactive)

QUERY: For the molecule Cc1[nH]c2ccccc2c1/C=N/Nc1ncnc2sc3c(c12)CCN(CC(=O)OC(C)(C)C)C3 , give its measured growth value.
RESULT: 98.3% (inactive)
